- target_under_test: α-glucosidase (Saccharomyces cerevisiae)
- assay_details: biochemical
- condition_label: read-out: α-Glucosidase IC50; mean ± SD, three independent assays
observable: IC50 (µM)
Expressed in µM, but write only the number.

Give recorded IC50 with α-glucosidase (Saccharomyces cerevisiae) for the following compound: Cc1cccc2c1nc(-c1ccc(Cl)c([N+](=O)[O-])c1)n2Cc1ccc(Cl)c([N+](=O)[O-])c1
7.1

----------
- target_under_test: α-glucosidase (Saccharomyces cerevisiae, UniProt P53341)
- Sequence (P53341 whole entry): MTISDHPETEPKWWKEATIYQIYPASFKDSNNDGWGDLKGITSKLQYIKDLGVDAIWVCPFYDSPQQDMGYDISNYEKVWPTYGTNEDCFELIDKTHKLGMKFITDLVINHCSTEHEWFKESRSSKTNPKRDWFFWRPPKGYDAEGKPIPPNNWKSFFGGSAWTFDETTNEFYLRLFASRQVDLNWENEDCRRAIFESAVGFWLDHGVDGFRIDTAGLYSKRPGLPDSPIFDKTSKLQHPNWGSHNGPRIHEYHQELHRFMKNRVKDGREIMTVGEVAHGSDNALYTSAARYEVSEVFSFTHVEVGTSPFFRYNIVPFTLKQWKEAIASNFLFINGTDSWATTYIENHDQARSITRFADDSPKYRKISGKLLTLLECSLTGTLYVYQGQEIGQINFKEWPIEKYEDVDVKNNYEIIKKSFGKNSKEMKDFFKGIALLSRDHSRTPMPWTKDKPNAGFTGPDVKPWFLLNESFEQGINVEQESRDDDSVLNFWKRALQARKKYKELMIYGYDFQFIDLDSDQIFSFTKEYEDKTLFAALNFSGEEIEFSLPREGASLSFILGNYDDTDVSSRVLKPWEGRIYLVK
- assay_details: biochemical
- condition_label: mean ± SD, three independent assays; read-out: α-Glucosidase IC50
- Procedure: The α-glucosidase assay was performed as previously described. The enzyme from Saccharomyces cerevisiae (0.125 U/mL) solution was dissolved in 0.1 M sodium phosphate buffer (pH 6.8). […] After incubation at 37 °C for 15 min, the reaction was terminated by adding 50 μL of 0.2 M sodium carbonate solution. α-Glucosidase activity was determined spectrophotometrically at 405 nm on a 96-well microplate reader Fluostar (BMG LABTECH GmbH, Offenburg, Germany) by measuring the amount of p-nitrophenol released. […]
Listed here are molecules together with their documented IC50.
Expressed in µM, but write only the number.

Fill in the blank: the reported IC50 of Cc1cccc2c1nc(-c1cc(O)ccc1O)n2Cc1cc(O)ccc1O is ____.
13.8

Another molecule: Cc1cccc2c1nc(-c1cc(O)c(O)c(O)c1)n2Cc1cc(O)c(O)c(O)c1 [C00041]
0.39

Another molecule: Cc1cccc2c1nc(-c1cc(O)c(O)c(O)c1)n2Cc1cc(O)c(O)c(O)c1 [8s]
0.39
